biological target: K-Ras G12C (Homo sapiens, UniProt P01116, G12C); assay: Fluorescence polarization assay of K-Ras G12C binding to Oregon green labelled RBD; conditions: fluorescence polarization; Ras:Raf (RBD) binding; 95% CI given alongside; read-out: EC50 of nucleotide:Ras complex for RBD
Sequence (P01116 1-188 isoform P01116-2 G12C): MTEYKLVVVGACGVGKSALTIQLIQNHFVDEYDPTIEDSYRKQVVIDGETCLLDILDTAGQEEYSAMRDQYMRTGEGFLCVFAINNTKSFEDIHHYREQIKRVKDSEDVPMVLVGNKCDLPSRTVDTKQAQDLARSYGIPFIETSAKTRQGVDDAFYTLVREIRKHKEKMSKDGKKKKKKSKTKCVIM
pEC50: −log10 of the molar value.
ENDPOINT: pEC50

[a] Nc1nc2c(ncn2[C@@H]2O[C@H](COP(=O)(O)OP(=O)(O)OP(=O)(O)O)[C@@H](O)[C@H]2O)c(=O)[nH]1
[b] Nc1nc2c(ncn2[C@@H]2O[C@H](COP(=O)(O)OP(=O)(O)O)[C@@H](O)[C@H]2O)c(=O)[nH]1
Challenge: Lower value of pEC50 belongs to which: a or b ? Let me know the label of the one you choose.
Response given: b
